Origin of the recorded values: paper PMC3653324

study_target: CYP1A2 (Homo sapiens, UniProt P05177)
Sequence (P05177 whole entry): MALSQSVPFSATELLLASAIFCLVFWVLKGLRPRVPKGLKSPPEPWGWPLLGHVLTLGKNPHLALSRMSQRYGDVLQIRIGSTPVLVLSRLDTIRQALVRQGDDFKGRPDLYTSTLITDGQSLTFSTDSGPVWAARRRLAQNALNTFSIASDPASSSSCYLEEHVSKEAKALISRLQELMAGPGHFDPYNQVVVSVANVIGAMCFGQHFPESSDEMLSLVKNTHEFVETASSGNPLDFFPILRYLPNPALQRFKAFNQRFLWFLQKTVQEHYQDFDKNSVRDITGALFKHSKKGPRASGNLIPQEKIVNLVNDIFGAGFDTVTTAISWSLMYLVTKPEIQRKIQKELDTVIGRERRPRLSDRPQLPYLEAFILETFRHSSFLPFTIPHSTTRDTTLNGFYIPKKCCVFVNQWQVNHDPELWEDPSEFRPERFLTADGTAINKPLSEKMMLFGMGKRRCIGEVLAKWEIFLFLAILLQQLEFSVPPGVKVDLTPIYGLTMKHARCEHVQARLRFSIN
Below, each entry is listed with its recorded IC50.

{"molecule": "O=c1cc(-c2cc(O)c(O)c(O)c2)oc2ccccc12 [CSMC-19, 3',4',5'-trihydroxyflavone]", "study_target": "CYP1A2 (Homo sapiens, UniProt P05177)", "IC50": "> 25 µM"}
{"molecule": "COc1cc(-c2oc3cc(C)c(C)cc3c(=O)c2O)ccc1O [CSMC-15]", "study_target": "CYP1A2 (Homo sapiens, UniProt P05177)", "IC50": "> 25 µM"}
{"molecule": "Cc1ccc2oc(-c3ccc(O)c(O)c3)c(O)c(=O)c2c1 [CSMC-11, 6-methyl-3,3',4'-trihydroxy flavone]", "study_target": "CYP1A2 (Homo sapiens, UniProt P05177)", "IC50": "> 25 µM"}
{"molecule": "CCCc1ccc2oc(-c3ccc(O)c(O)c3)c(O)c(=O)c2c1 [CSMC-13, 6-propyl-3,3',4'-trihydroxy flavone]", "study_target": "CYP1A2 (Homo sapiens, UniProt P05177)", "IC50": "> 25 µM"}
